ASSAYED TARGET: Voltage-gated inwardly rectifying potassium channel KCNH2 (Homo sapiens)
Sequence (Q12809 whole entry): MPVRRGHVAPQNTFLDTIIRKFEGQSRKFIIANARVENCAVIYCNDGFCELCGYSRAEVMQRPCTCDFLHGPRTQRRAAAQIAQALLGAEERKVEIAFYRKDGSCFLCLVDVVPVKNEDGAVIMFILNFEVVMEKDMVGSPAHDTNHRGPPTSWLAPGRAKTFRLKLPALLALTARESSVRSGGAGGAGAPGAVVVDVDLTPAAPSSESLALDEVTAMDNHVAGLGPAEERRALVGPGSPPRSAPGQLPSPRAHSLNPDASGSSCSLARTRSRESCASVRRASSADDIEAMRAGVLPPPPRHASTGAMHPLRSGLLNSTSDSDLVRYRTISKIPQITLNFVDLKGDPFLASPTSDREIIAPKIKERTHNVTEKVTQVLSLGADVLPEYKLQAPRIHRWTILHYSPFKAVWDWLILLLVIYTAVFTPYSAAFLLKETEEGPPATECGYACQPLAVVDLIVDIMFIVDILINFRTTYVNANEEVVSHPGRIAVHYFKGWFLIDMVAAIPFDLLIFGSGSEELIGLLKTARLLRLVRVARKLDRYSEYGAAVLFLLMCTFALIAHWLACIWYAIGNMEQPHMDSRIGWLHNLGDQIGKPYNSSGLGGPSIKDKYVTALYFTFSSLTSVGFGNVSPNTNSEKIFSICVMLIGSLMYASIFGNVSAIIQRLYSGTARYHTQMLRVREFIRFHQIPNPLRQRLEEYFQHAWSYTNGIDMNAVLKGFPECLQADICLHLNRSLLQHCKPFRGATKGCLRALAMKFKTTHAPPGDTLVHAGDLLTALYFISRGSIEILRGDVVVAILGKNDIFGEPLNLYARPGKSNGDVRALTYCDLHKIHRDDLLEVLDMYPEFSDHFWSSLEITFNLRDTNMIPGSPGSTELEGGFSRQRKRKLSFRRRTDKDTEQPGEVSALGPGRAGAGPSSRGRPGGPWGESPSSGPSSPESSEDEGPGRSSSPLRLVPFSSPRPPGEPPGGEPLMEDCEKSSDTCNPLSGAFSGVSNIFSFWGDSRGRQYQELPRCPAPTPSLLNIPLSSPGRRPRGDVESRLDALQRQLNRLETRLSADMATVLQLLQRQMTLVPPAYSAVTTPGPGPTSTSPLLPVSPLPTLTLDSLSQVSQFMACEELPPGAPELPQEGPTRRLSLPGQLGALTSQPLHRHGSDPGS
RECORDED ENDPOINT: IC50
// unit must come after the numeric part

Challenge: For Voltage-gated inwardly rectifying potassium channel KCNH2 (Homo sapiens), provide IC50 of COC[C@H](C)Oc1cc(Oc2ccc(S(C)(=O)=O)cc2)cc(C(=O)Nc2nc(C)ns2)c1 please.
Response given: 7.5 µM

====

ASSAYED TARGET: Retinoic acid receptor beta (Homo sapiens)
Sequence (P10826 whole entry): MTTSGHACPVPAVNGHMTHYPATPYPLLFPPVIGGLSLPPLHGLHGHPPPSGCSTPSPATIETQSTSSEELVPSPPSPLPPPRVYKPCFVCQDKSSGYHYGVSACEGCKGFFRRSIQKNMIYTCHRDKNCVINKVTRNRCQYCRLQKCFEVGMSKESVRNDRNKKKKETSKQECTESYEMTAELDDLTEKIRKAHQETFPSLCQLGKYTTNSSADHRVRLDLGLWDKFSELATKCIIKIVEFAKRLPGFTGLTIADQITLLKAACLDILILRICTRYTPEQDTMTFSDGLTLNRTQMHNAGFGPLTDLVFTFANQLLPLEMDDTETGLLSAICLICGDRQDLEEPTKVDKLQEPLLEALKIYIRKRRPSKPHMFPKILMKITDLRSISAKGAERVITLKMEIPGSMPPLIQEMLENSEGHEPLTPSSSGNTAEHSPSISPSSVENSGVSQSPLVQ
RECORDED ENDPOINT: IC50 (µM)
A number alone suffices; assume µM.

Challenge: For Retinoic acid receptor beta (Homo sapiens), provide IC50 of COC[C@H](C)Oc1cc(O[C@@H](C)Cc2ccccc2)cc(C(=O)Nc2ccc(C(=O)O)cn2)c1 please.
Response given: 32

====

ASSAYED TARGET: Retinoic acid receptor gamma (Homo sapiens)
Sequence (P13631 whole entry): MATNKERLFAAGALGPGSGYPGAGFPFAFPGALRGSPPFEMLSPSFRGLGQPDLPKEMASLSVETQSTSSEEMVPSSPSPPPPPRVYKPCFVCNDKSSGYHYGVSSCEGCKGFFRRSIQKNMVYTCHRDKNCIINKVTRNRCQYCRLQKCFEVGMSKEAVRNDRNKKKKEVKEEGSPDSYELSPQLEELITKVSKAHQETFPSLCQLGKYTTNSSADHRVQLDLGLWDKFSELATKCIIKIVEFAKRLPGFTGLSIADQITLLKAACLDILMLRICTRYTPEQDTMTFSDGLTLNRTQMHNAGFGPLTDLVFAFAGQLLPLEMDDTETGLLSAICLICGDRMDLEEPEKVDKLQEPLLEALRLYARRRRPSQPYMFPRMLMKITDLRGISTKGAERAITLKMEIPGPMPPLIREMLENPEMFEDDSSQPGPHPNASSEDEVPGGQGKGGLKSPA
RECORDED ENDPOINT: pIC50
By convention, pIC50 is the negative base-10 log of a molar concentration.

Challenge: Requested field: pIC50. Item: COC[C@H](C)Oc1cc(Oc2cc(F)cc(F)c2)cc(C(=O)Nc2ccc(C(=O)O)cn2)c1
Response given: 4.72

====

ASSAY: Toxicity in testis (unknown origin)
Type: tissue-based
RECORDED ENDPOINT: Activity

Below are worked cases with known answers.
# SMILES STRING, Activity
data = [
    ("COC[C@H](C)Oc1cc(Oc2ccc(S(C)(=O)=O)cc2)cc(C(=O)Nc2nc(C)ns2)c1", "Non-toxic"),
    ("COC[C@H](C)Oc1cc(Oc2ccc(S(C)(=O)=O)cc2)cc(C(=O)Nc2nccs2)c1", "Non-toxic"),
    ("O=C(O)c1ccc(NC(=O)c2cc(OCc3ccccc3F)cc(OCc3ccccc3F)c2)nc1", "Toxic"),
    ("CC(C)COc1cc(OC(C)C)cc(C(=O)Nc2ccc(C(=O)O)cn2)c1", "Toxic"),
    ("COC[C@H](C)Oc1cc(Oc2cc(F)cc(F)c2)cc(C(=O)Nc2ccc(C(=O)O)cn2)c1", "Toxic"),
]

Next, consider the following compound.
Challenge: Requested field: Activity. Item: COC[C@H](C)Oc1cc(O[C@@H](C)Cc2ccccc2)cc(C(=O)Nc2ccc(C(=O)O)cn2)c1
Response given: Toxic

====

Below: a set of entries, each annotated with reported logD.
ASSAY: Lipophilicity, log D of the compound
Type: physicochemical
CONDITIONS: octanol/water
The reply should be a number, written without any unit.

# SMILES STRING, logD
measured = [
    ("COC[C@H](C)Oc1cc(Oc2ccc(S(C)(=O)=O)cc2)cc(C(=O)Nc2nc(C)ns2)c1", 2.9),
    ("COC[C@H](C)Oc1cc(Oc2cc(F)cc(F)c2)cc(C(=O)Nc2ccc(C(=O)O)cn2)c1", 1.4),
    ("COC[C@H](C)Oc1cc(Oc2ccc(S(C)(=O)=O)cc2)cc(C(=O)Nc2nccs2)c1", 3.2),
    ("COC[C@H](C)Oc1cc(Oc2cc(F)cc(F)c2)cc(C(=O)Nc2nccs2)c1", 4.1),
]

Next, consider the following molecule.
Challenge: Requested field: logD. Item: COC[C@H](C)Oc1cc(Oc2ccc(S(C)(=O)=O)cc2)cc(C(=O)Nc2ccc(C(=O)O)cn2)c1
Response given: -0.4

====

ASSAY: Solubility of the compound
Format: physicochemical
RECORDED ENDPOINT: solubility (µM)
A number alone suffices; assume µM.

Below are worked cases with known answers.
# SMILES STRING, QUANTITATIVE RESULT
records = [
    ("COC[C@H](C)Oc1cc(Oc2ccc(S(C)(=O)=O)cc2)cc(C(=O)Nc2nc(C)ns2)c1", 129),
    ("COC[C@H](C)Oc1cc(Oc2cc(F)cc(F)c2)cc(C(=O)Nc2ccc(C(=O)O)cn2)c1", 805),
]

Next, consider the following compound.
Challenge: Requested field: solubility. Item: COC[C@H](C)Oc1cc(Oc2ccc(S(C)(=O)=O)cc2)cc(C(=O)Nc2nccs2)c1
Response given: 20

====

ASSAYED TARGET: Retinoic acid receptor alpha (Homo sapiens, UniProt P10276)
Sequence (P10276 whole entry): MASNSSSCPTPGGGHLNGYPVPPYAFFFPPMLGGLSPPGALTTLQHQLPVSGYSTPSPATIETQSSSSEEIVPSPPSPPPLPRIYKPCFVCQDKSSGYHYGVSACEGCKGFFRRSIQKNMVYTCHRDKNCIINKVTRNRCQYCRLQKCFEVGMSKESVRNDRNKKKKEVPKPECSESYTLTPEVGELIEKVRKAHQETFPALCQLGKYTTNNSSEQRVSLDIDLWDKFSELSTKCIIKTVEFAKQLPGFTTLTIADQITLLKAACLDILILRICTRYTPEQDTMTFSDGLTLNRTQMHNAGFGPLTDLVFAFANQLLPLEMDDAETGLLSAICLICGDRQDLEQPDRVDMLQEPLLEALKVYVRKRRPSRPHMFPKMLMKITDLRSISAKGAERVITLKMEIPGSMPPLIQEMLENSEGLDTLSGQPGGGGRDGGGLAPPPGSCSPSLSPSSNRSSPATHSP
RECORDED ENDPOINT: pIC50
By convention, pIC50 is the negative base-10 log of a molar concentration.

# SMILES STRING, pIC50
measured = [
    ("CC(C)COc1cc(OC(C)C)cc(C(=O)Nc2ccc(C(=O)O)cn2)c1", 8.00),
]

Challenge: Requested field: pIC50. Item: COC[C@H](C)Oc1cc(O[C@@H](C)Cc2ccccc2)cc(C(=O)Nc2ccc(C(=O)O)cn2)c1
Response given: 6.33

====

ASSAYED TARGET: Hexokinase-4 (Homo sapiens)
Sequence (P35557 whole entry): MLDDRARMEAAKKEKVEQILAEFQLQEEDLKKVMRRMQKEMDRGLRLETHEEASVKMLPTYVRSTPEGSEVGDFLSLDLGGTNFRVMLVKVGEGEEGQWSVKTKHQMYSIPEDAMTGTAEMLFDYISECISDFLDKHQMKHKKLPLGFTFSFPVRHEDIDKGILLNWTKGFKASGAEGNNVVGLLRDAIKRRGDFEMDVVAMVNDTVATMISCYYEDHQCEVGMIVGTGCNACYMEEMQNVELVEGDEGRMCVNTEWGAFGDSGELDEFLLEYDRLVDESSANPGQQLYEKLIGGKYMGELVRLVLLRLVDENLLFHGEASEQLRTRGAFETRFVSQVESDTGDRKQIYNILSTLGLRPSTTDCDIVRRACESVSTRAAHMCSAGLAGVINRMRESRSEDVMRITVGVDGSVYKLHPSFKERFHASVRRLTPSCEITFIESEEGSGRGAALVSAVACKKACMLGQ
ASSAY: Activation of glucokinase (unknown origin)
Below: a set of entries, each annotated with reported pEC50.
By convention, pEC50 is the negative base-10 log of a molar concentration.

# SMILES STRING, ASSAYED TARGET, pEC50
records = [
    ("COC[C@H](C)Oc1cc(Oc2cc(F)cc(F)c2)cc(C(=O)Nc2nccs2)c1", "Hexokinase-4 (Homo sapiens)", 7.15),
]

Challenge: Requested field: pEC50. Item: COC[C@H](C)Oc1cc(Oc2ccc(S(C)(=O)=O)cc2)cc(C(=O)Nc2nccs2)c1
Response given: 7.22

Challenge: Requested field: pEC50. Item: COC[C@H](C)Oc1cc(Oc2ccc(S(C)(=O)=O)cc2)cc(C(=O)Nc2nc(C)ns2)c1
Response given: 6.96
